Quick list: Ki per entry.
Target: hPPARγ LBD (Homo sapiens, UniProt P37231)
Sequence (P37231 238-503 limits assumed): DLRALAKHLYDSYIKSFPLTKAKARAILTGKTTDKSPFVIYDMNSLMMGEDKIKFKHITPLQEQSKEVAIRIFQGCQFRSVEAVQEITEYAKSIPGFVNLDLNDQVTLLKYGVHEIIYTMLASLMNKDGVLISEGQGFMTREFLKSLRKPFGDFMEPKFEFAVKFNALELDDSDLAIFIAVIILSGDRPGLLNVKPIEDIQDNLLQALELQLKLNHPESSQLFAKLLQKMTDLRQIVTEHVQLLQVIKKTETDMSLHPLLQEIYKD

CCCc1cc(OC)c(O)c(-c2cc(CCC)cc(OC)c2O)c1 [Compound 2, tetrahydrodieugenol] : 0.32 µM

From here, focus on the item given below.
Quick one: Ki for C=CCc1cc(OC)c(O)c(-c2cc(CC=C)cc(OC)c2O)c1 ?
0.24 µM

* * *

Quick list: EC50 per entry.
Molecular target: Mouse PPARγ (Mus musculus, UniProt P37238)
Sequence (P37238 1-505): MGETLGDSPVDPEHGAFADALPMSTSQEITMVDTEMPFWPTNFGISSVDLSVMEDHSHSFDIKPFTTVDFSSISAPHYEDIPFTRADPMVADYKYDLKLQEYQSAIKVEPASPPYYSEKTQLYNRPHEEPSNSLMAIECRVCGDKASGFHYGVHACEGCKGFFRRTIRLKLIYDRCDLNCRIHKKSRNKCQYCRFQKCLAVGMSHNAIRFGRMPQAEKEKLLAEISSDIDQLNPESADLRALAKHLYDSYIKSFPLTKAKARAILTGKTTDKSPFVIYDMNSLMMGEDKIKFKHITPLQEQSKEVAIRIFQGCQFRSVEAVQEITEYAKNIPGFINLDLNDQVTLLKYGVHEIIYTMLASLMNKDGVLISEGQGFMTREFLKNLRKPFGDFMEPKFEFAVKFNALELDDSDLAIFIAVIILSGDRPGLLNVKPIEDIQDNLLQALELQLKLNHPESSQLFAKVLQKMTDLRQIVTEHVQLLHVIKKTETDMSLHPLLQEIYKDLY
Experiment: PPAR luciferase reporter gene transactivation in HEK-293 cells
Format: cell-based
Settings: read-out: Mouse PPARγ EC50; HEK-293, 18 h; N.D. = not detected up to 100 μM
The figure you give is taken to be in nM; do not add the unit.

C=CCc1cc(OC)c(O)c(-c2cc(CC=C)cc(OC)c2O)c1 : 930

From here, focus on the item given below.
I'm curious: which EC50 was measured for CCCc1cc(OC)c(O)c(-c2cc(CCC)cc(OC)c2O)c1 [Compound 2, tetrahydrodieugenol] tested on Mouse PPARγ (Mus musculus, UniProt P37238)?
380
